inhibition: recorded values
- subjectOfTest: N-glycosylase/DNA lyase (Homo sapiens) (UniProt O15527)
- Sequence (O15527 whole entry): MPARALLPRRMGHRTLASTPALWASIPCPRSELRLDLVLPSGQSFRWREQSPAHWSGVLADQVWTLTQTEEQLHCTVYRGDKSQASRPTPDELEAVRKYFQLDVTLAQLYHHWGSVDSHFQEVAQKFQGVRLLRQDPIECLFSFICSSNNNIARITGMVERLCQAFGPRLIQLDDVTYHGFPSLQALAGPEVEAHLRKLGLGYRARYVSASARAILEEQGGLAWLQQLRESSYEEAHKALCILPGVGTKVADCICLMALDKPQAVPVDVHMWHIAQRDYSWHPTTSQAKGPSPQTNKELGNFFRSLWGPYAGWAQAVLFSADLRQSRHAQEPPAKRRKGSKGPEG
- details: Compound Concentration 1.0 uM, Hit No;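 further: OGG1 cleavage of a quenched duplex DNA oligonucleotide, coupled to APE1 for strand incision, read as fluorescence at 594 nm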
- Description: Inhibition of OGG1 by quantifying inhibition of OGG1-mediated cleavage and dissociation of quenched duplex DNA oligonucleotides, measured as fluorescence at 594 nm. To generate a functional strand incision and increase turn-over this assay is coupled to APE1.
Response body: numeric value in %, unit text excluded.

- structureSmiles: "CCOC(=O)c1cc2cc(-c3cc(C(=O)NCc4ccc(C(=O)O)cc4)nn3C)ccc2[nH]1"
  unitSpec: "%"
  inhibition: 9.53

Supply recorded inhibition for O=C(O)[C@H]1[C@H](Cn2nnc3ccccc3c2=O)CC[C@@H]1C(=O)c1ccc(OCCC2CCOCC2)cc1 here.
2.93

Supply recorded inhibition for CS(=O)(=O)c1cc(C2(NC(=O)c3cncc4c3cnn4-c3ccc(F)cc3)CC2)ccn1 here.
-1.05

Supply recorded inhibition for CC[C@@H]1[C@H](F)C(=O)N[C@@H]1COc1nccc2cc(C(N)=O)c(OC)cc12 here.
-7.95

Supply recorded inhibition for CCCOc1ccc([C@H]2[C@H](C(=O)O)[C@@H](c3ccc4c(c3)OCO4)CN2CC(=O)Nc2c(CC)cccc2CC)cc1 here.
10.2

Supply recorded inhibition for CC(=O)Nc1cccc(-n2c(=O)n(C3CC3)c(=O)c3c(Nc4ccc(I)cc4F)n(C)c(=O)c(C)c32)c1 here.
8.25

Supply recorded inhibition for COc1cccc(-c2nccc3c2CN(c2ccccc2)C3=O)c1 here.
5.54

Supply recorded inhibition for CNCc1ccccc1-c1csc([C@H](C)Nc2nc(C)nc3cc(OC)c(OC)cc23)c1 here.
6.33

Supply recorded inhibition for CN(C)C(=O)/C(C#N)=C/c1ccc(-c2nc3cnc4c(ccn4C)c3n2C2CCCCC2)o1 here.
-5.75
